Several reports have described IC50 for Coagulation factor XI (Homo sapiens, UniProt P03951); a selection of those results is presented here.

For orientation, consider the following solved cases.
| Compound | IC50 |
| --- | --- |
| C[C@@H](c1cnc(N2C[C@H]3C[C@H]3C2=O)nc1)n1cc(NC(=O)c2nc(-c3c(C(F)F)ccc(Cl)c3F)cnc2COC(C)(C)C)cn1 | 6.83 µM |
| CN(C(=O)[C@@H]1[C@@H](Cc2ccnc(N)c2)C(=O)N1C(=O)N[C@@H](C1CCCCC1)C(F)(F)F)c1ccccn1 | < 0.01 µM |
| CC1(C)CCc2c1nn(CC(=O)N1CC[C@@]3(C1)OC(=O)Nc1ccc(Cl)c(F)c13)c2N | 0.1 µM |
| C[C@@H](c1cnc(N2C[C@H]3C[C@H]3C2=O)nc1)n1cc(NC(=O)c2nc(-c3c(C(F)F)ccc(Cl)c3F)cnc2C(O)C(F)(F)F)cn1 (single isomer, unassigned) | > 10 µM |
| CCC(=O)c1ccc(Cl)cc1-c1cc(=O)n([C@@H](Cc2ccccc2)C(=O)Nc2ccc(C(=O)O)cc2)nc1OC | 0.00165 µM |

Now consider a different compound.
[in] Identify measured IC50 obtained with Coagulation factor XI (Homo sapiens, UniProt P03951) for O=C(O)c1ccc(NC(=O)[C@H](Cc2ccccc2)c2ccc(-c3cc(Cl)ccc3-n3cnnn3)c[n+]2[O-])cc1 .
[out] 0.00016 µM
